test: Cytotoxicity against human Keratinocyte assessed as cell viability at 1 uM incubated for 48 hrs by MTT assay (reference value: 100 + /-7 %); assay type: toxicity, cell-based; conditions: keratinocytes, read-out: Activity
For each of the compounds below, state its viability at 48 h, 1 µM.
Kindly write the number and append the unit.

[in] Any idea what viability at 48 h, 1 µM was measured for NC(=O)c1cccc(-c2ccccc2NCC2CCN(C(=O)CCOCCOCCOCCOCCNC(=O)CCCC[C@H]3SC[C@H]4NC(=O)N[C@H]43)CC2)c1 ?
[out] 101%

[in] Any idea what viability at 48 h, 1 µM was measured for NC(=O)c1cccc(-c2ccccc2NCC2CCNCC2)c1 ?
[out] 106%
